Provenance of the data: paper PMC5971566

experiment: Population PK model of rezafungin plasma concentrations, pooled phase 1 single- and multiple-ascending-dose i.v. data; type: in vivo, humans (healthy subjects); conditions: human, iv; healthy subjects n = 42, i.v. 60-min infusion 50-400 mg single or once weekly, plasma, linear four-compartment model, S-ADAPT; read-out: CL, total clearance, population mean final estimate (converted)
Numbered stars: 1 amine (or outer) side, 2 acyl side, 3 side chain; on linkers, the order of the positions; unused ones are H or OH. Bridge positions count the residues as written; N and C are the ends. Square brackets hold non-standard residues; d marks the D form. Peptide text beside a SMILES is read from it. * marks the point of attachment. Orn(4R-OH,5R-OCH2CH2NMe3+) = C[N+](C)(C)CCO[C@@H](N[*:3])[C@H](O)C[C@H](N[*:1])C(=O)[*:2]; pTerphenylCO(4''-OnC5H11) = CCCCCOc1ccc(-c2ccc(-c3ccc(C(=O)*)cc3)cc2)cc1; hTyr(3S-OH,4S-OH) = N[C@H](C(=O)O)[C@H](O)[C@@H](O)c1ccc(O)cc1; Pro(3S-OH,4S-Me) = C[C@H]1CN[C@H](C(=O)O)[C@H]1O; Hyp = O=C(O)[C@@H]1C[C@@H](O)CN1
measured_property: clearance (mL/min)
Kindly provide the numeric value in mL/min only, without the unit symbol.

-- ask Value lookup for clearance; key = CCCCCOc1ccc(-c2ccc(-c3ccc(C(=O)N[C@H]4C[C@@H](O)[C@@H](OCC[N+](C)(C)C)NC(=O)[C@@H]5[C@@H](O)[C@@H](C)CN5C(=O)[C@H]([C@@H](C)O)NC(=O)[C@H]([C@H](O)[C@@H](O)c5ccc(O)cc5)NC(=O)[C@@H]5C[C@@H](O)CN5C(=O)[C@H]([C@@H](C)O)NC4=O)cc3)cc2)cc1 [Rezafungin] ({pTerphenylCO(4''-OnC5H11)}-[Orn(4R-OH,5R-OCH2CH2NMe3+)]T[Hyp][hTyr(3S-OH,4S-OH)]T[Pro(3S-OH,4S-Me)]; lactam 1-C)
-- reply 3.13
